Please respond with reported melting point for every item in the list.

query: Recorded melting point for O=C(Oc1ccccc1)c1ccc(N(Cc2ccccc2)Cc2ccccc2)cc1Cl , please?
result: 133 to 135 °C

query: Recorded melting point for Cc1cc2c(-c3ccccc3Cl)c(NC(=O)Nc3ccc(Cl)cc3)c(=O)n(C)c2cc1C , please?
result: 207 to 209 °C

query: Recorded melting point for O=C(O)CCC(=O)N[C@H]1C[C@H](C(=O)O)Nc2cc(Cl)cc(Cl)c21 (relative stereo) , please?
result: 221 to 223 °C

query: Recorded melting point for Cc1c(SCCCCSCc2ccncc2)ccnc1CNc1cnc2ccccc2c1 , please?
result: 110 to 113 °C

query: Recorded melting point for COc1ncnc2c(Cl)c(NC(=S)NCCN)ccc12 , please?
result: 230 to 232 °C

query: Recorded melting point for O=C1CCC(c2ccc(-n3cnc4ccccc43)cc2)=NN1 , please?
result: 262 to 264 °C

query: Recorded melting point for CC(C)(C)OC(=O)[C@@H]1CCCN2C(=O)CC[C@H](NS(C)(=O)=O)C(=O)N12 , please?
result: 68 to 70 °C

query: Recorded melting point for CCCCCCCCCCOc1ccc(CO)cc1OCCCCCCCCCC , please?
result: 41 to 42.5 °C

query: Recorded melting point for CC(C)CN(CC(C)C)S(=O)(=O)N[C@@H](Cc1ccc(Oc2nccc3cnccc23)cc1)C(=O)O , please?
result: 88 °C
